Origin of values: PubChem BioAssay AID179

# Test system: CEM cells HIV-1 protection, formazan growth assay
# run.description: NCI AIDS Antiviral Assay
# measurement.parameters: measured here: growth of uninfected CEM cells
recorded.metric: pIC50
# reply with the number alone; pIC50 is -log10 of concentration in mol/L

Field request: pIC50 | item: `CCn1c(O)c(C=Nc2ccccc2)s/c1=N/Nc1nc(-c2ccc(O)c(O)c2)cs1` 4.85

Field request: pIC50 | item: `CC(=O)Oc1cc(C)c(Cl)c2c(OC(C)=O)cc(C(C)=O)c(O)c12` 4.31

---

# Tested on: CEM cells HIV-1 protection, formazan growth assay
# run.description: NCI AIDS Antiviral Assay
Activity calls are given as the source filed them.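 Rule for the calls: active = compounds giving half or more protection of infected cells from virus-caused growth loss, again on retest; inactive = the rest.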
recorded.metric: outcome

| compound | recorded.metric | result |
| --- | --- | --- |
| O=C(NCCCCCCNC(=O)n1cc(F)c(=O)[nH]c1=O)NCCCOCCOCCOCCOCCOCCOCCOCCOCCOCCOCCOCCOCCOCCOCCOCCOCCOCCOCCOCCOCCOCCCNC(=O)C(O)C(O)C(OC1OC(CO)C(O)C(O)C1O)C(O)CO (stereo not given) | outcome | inactive |
| CSC(=S)N(C)c1nc(=[N+](C)C)ss1 | outcome | inactive |
| N#CC12Cc3ccc4c(c3-c3cccc(c31)CCN2C(=O)c1ccccc1)OCO4 (stereo not given) | outcome | inactive |
| NC(CCCC(N)P(=O)(O)O)C(=O)O (stereo not given) | outcome | inactive |

Field request: outcome | item: `COc1ccc(Br)c(C(=O)N2CCc3ccccc32)c1N` inactive

---

# System: CEM cells HIV-1 protection, formazan growth assay
# run.description: NCI AIDS Antiviral Assay
# measurement.parameters: measured here: growth of uninfected CEM cells
One threshold, 20 µM, splits the recorded IC50 values: lower ones are 1, equal or higher ones are 0.

| compound | label.value |
| --- | --- |
| CCC(=O)CCCC=C(c1cc(Cl)c(OC)c(CO)c1)c1cc(Cl)c(OC)c(CO)c1 | 1 |

Is IC50 of `CCCCCCCCCCCCSS(=O)(=O)c1ccc(C)cc1` strictly below 20 µM? 1

Is IC50 of `COc1cc(CO)c(-c2c(CO)cc(OC)c(OC)c2OC)c(OC)c1OC` strictly below 20 µM? 0

Is IC50 of `COc1cccc2cc(C(=O)Nc3ccccc3)c(=N)oc12` strictly below 20 µM? 0

Is IC50 of `C=C(Br)CNCC(=C)Br` strictly below 20 µM? 0

Is IC50 of O=C(OCC(OC(=O)c1ccccc1)C1CC(C(O)C2CCCCC2)C(=O)O1)c1ccccc1 (configuration not stated) strictly below 20 µM? 0

Is IC50 of COc1ccc(NC2Oc3cc4c(cc3C(c3cccc(OC)c3OC)C2C)OCO4)cc1 (configuration not stated) strictly below 20 µM? 1

---

# System: CEM cells HIV-1 protection, formazan growth assay
# run.description: NCI AIDS Antiviral Assay
# measurement.parameters: measured here: growth of uninfected CEM cells
pIC50: −log10 of the molar value.
pIC50 of 5 or higher: fulfilled. Under 5: not fulfilled.

Past entries and their recorded results:
| compound | label.value |
| --- | --- |
| O=C1CSc2cc([N+](=O)[O-])ccc2N1 | not fulfilled |
| O=S(=O)(O)c1cc(Nc2ccnc3ccccc23)c2c(S(=O)(=O)O)cc(S(=O)(=O)O)cc2c1 | not fulfilled |
| C=CCOCn1ccc(=O)[nH]c1=O | not fulfilled |
| CSc1n[nH]c(N)c1C(=O)Nc1ccc(Cl)cc1 | fulfilled |
| CCCCS(=O)(=O)O | not fulfilled |
| CC1=NN(C(=O)CC(=O)Nc2cccc(Cl)c2)C(=O)C1N=Nc1ccc(C(=O)O)cc1 (stereo unspecified) | not fulfilled |
| CN(C)CCCN=C(N)N | not fulfilled |
| COc1ccc2c(c1)nc1n2C(c2c(Cl)cccc2Cl)SC1 (stereo unspecified) | not fulfilled |
| CCOC(=S)SC1OC(COC(C)=O)C(OC(C)=O)C(OC(C)=O)C1OC(C)=O (stereo unspecified) | not fulfilled |
| Cc1ccccc1-n1c(C)nc(-c2ccccc2)cc1=O | not fulfilled |

Could you tell me if the measured pIC50 of `Nc1c(N=Nc2ccc(S(=O)(=O)c3ccc(N=Nc4cc(S(=O)(=O)O)c5cccc(S(=O)(=O)O)c5c4N)cc3)cc2)cc(S(=O)(=O)O)c2cccc(S(=O)(=O)O)c12` reaches 5 or more? not fulfilled

Could you tell me if the measured pIC50 of CCc1cccc(C(C)C)c1NC(=O)C(=O)C1C(=O)Nc2ccccc2S1=O (stereo unspecified) reaches 5 or more? not fulfilled

Could you tell me if the measured pIC50 of `C[n+]1ccc(-c2nc(-c3cc[n+](C)cc3)nc(-c3cc[n+](C)cc3)n2)cc1` reaches 5 or more? not fulfilled

Could you tell me if the measured pIC50 of CN(C)CC1COC2Cc3ccccc3C1O2 (stereo unspecified) reaches 5 or more? not fulfilled

Could you tell me if the measured pIC50 of `CNc1c2cccc(C)c2nc2c(C(=O)NCCN(C)C)cccc12` reaches 5 or more? fulfilled

Could you tell me if the measured pIC50 of COc1cc(C[C@@]2(O)C(=O)OCC2Cc2ccc(OC)c(OC)c2)ccc1O (stereo partly specified) reaches 5 or more? not fulfilled

Could you tell me if the measured pIC50 of `N=C(N)CCNC(=O)c1c[nH]c2nc(N)[nH]c(=O)c12` reaches 5 or more? not fulfilled

Could you tell me if the measured pIC50 of `Cc1nn(-c2ccc(S(=O)(=O)[O-])cc2)c([O-])c1N=[N+](C)c1ccc(-c2ccc(N=Nc3ccc4c(S(=O)(=O)[O-])cc(S(=O)(=O)[O-])c(N)c4c3[O-])c([O-])c2)cc1[O-].[Cu+2].[Cu+2].[Na+]` reaches 5 or more? not fulfilled

Could you tell me if the measured pIC50 of `CC(C)COC(=O)c1ccc(N)cc1` reaches 5 or more? not fulfilled
